target: Transcriptional regulator MvfR (Pseudomonas aeruginosa PA14, UniProt A0A072ZLE6); test: Binding affinity to Pseudomonas aeruginosa PA14 biotinylated His6SUMO-tagged PqsR expressed in Eschericia coli BL21 (DE3) by surface plasmon resonance spectroscopic analysis
Sequence (A0A072ZLE6 whole entry): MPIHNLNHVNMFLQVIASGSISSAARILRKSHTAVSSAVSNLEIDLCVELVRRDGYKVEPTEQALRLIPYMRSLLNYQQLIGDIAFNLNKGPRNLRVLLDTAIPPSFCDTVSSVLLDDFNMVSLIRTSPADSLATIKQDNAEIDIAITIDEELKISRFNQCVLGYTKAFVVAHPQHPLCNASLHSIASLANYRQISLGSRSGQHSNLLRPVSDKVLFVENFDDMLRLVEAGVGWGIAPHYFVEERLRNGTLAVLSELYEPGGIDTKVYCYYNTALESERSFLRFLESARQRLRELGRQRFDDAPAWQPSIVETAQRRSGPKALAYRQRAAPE
quantityName: pKd
Reminder that pKd means the negative base-10 logarithm of the concentration expressed in mol/L.

Below, each entry is followed by its recorded pKd result.
NC(=O)c1cccc(Br)c1 | 5.17
NC(=O)c1ccc2ccccc2c1 | 6.10
Nc1nnc(-c2ccc(Cl)cc2)o1 | 3.70

Give its pKd value. Item: FC(F)(F)c1cc(-c2cccs2)n[nH]1
4.97

Proceed to Nc1cccc(Br)n1
5.17

Follow-up item: CCCCCCCc1[nH]c2ccccc2c(=O)c1O
6.68

And then Nc1nnc(-c2ccc(Cl)cc2)s1 , what is it?
5.35
